- System: Human rhinovirus sp.
- assay-overview: In vitro concentration required to inhibit 80 percent of human rhinovirus 15 serotypes was determined by TCID50 assay
- Format: functional
parameter-measured: MIC80 (µM)
Give your result in µM as a bare value.

Field: example entries. Status: answers known.
{"molecule": "Cc1cc(CCCCCOc2c(Cl)cc(C3=NCCO3)cc2Cl)on1 [WIN-54954]", "MIC80, µM": 0.9}
{"molecule": "Cc1cc(CCCOc2c(C)cc(-c3nc(C)no3)cc2C)on1", "MIC80, µM": 0.73}
{"molecule": "CSCc1cc(CCCOc2c(C)cc(-c3noc(C)n3)cc2C)on1", "MIC80, µM": 0.32}
{"molecule": "Cc1cc(CCCOc2c(C)cc(-c3noc(N(C)C)n3)cc2C)on1", "MIC80, µM": 0.8}
{"molecule": "COCCc1cc(CCCOc2c(C)cc(-c3noc(C)n3)cc2C)on1", "MIC80, µM": 0.24}
{"molecule": "Cc1cc(CCCOc2c(C)cc(-c3nnc(C)o3)cc2C)on1", "MIC80, µM": 3.7}

query: Param item = Cc1cc(CCCOc2c(C)cc(-c3nnn(C)n3)cc2C)on1 ; retrieve measured MIC80.
result: 0.71

query: Tell me the measured MIC80 of Cc1nc(-c2cc(C)c(OCCCc3cc(CCO)no3)c(C)c2)no1 , please.
result: 1.5

query: Record request: MIC80 value, item CCc1nc(-c2cc(C)c(OCCCc3cc(C)no3)c(C)c2)no1
result: 0.32

Entry source: ChEMBL document CHEMBL1127597
